Study System: nuclear factor-kappa B (NF-kB)-inducing kinase (NIK) (Homo sapiens, UniProt Q99558)
Construct: made in house; host or cells: baculovirus-infected insect cells
Sequence (Q99558 whole entry): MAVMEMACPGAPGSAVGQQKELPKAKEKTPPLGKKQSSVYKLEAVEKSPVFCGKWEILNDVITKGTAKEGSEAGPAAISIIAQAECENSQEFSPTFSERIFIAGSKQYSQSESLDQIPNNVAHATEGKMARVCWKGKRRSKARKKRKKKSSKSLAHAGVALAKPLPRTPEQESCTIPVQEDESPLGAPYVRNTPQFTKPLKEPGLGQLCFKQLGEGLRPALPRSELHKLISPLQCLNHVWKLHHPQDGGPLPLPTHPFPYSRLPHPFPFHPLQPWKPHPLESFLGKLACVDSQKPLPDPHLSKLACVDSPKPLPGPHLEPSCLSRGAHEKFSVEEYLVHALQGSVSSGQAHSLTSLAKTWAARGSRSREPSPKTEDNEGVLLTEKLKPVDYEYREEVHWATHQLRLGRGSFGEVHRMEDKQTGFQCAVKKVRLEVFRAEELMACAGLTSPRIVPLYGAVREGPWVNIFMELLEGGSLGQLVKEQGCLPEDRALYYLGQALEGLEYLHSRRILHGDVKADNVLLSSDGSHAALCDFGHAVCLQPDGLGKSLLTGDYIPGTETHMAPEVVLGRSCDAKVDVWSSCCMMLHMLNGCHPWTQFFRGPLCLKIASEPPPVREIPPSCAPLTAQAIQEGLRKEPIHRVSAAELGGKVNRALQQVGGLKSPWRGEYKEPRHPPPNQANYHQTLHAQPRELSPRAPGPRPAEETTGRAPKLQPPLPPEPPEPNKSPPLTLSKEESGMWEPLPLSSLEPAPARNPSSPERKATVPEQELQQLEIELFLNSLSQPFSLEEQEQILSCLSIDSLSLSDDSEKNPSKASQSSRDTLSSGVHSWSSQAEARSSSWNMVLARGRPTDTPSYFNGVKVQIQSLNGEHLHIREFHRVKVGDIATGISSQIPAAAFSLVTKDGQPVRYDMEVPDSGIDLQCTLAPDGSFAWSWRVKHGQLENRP
Protocol Summary: NIK enzyme inhibition assay (Transcreener ADP fluorescence polarization, NIK ADP-FP)
Format: biochemical
Listed here are compounds together with their documented Ki.
Result Type: Ki

Test Smiles | Study System | Result Type | Reported Value
CN1CC[C@@](O)(C#Cc2cccc(-c3nc4c(c(C(N)=O)n3)CCC4)c2)C1=O | nuclear factor-kappa B (NF-kB)-inducing kinase (NIK) (Homo sapiens, UniProt Q99558) | Ki | 0.00019 µM
Cc1ccnn1-c1cc(C(N)=O)nc(-c2cccc(C#C[C@]3(O)CCN(C)C3=O)c2)c1 | nuclear factor-kappa B (NF-kB)-inducing kinase (NIK) (Homo sapiens, UniProt Q99558) | Ki | 0.00129 µM
CN1CC[C@@](O)(C#Cc2cc3c(c(-c4cccc(C(N)=O)n4)c2)OCC3)C1=O | nuclear factor-kappa B (NF-kB)-inducing kinase (NIK) (Homo sapiens, UniProt Q99558) | Ki | 0.00099 µM
C[C@@H]1CCN1c1cc(C(N)=O)nc(-c2cccc(C#C[C@]3(O)CCN(C)C3=O)c2)n1 | nuclear factor-kappa B (NF-kB)-inducing kinase (NIK) (Homo sapiens, UniProt Q99558) | Ki | 0.00114 µM

* * *

Listed here are compounds together with their documented Ki.
Study System: nuclear factor-kappa B (NF-kB)-inducing kinase (NIK) (Homo sapiens, UniProt Q99558)
Construct: made in house; host or cells: baculovirus-infected insect cells
Protocol Summary: NIK enzyme inhibition assay (Transcreener ADP fluorescence polarization, NIK ADP-FP)
Format: biochemical

Compound | Comparative Sign | Ki, nM
Cc1cc(C(N)=O)nc(-c2cc(C#C[C@]3(O)CCN(C)C3=O)ccc2F)c1 | = | 0.06
CC(C)n1ncc2c(-c3cccc(C#C[C@]4(O)CCN(C)C4=O)c3)nc(C(N)=O)cc21 | = | 1.77
Cc1nnc([C@](C)(O)C#Cc2cccc(-c3nccc(C(N)=O)n3)c2)o1 | = | 60.2
Cc1ccc(C(N)=O)nc1-c1cccc(C#C[C@]2(O)CCN(C)C2=O)c1 | = | 23.8
CN1CCC(O)(C#Cc2cccc(-c3nc(C(N)=O)cn4ccnc34)c2)C1=O (stereo in doubt) | = | 0.39
Cc1cn[nH]c1-c1cc(C(N)=O)nc(-c2cccc(C#C[C@]3(O)CCN(C)C3=O)c2)n1 | < | 0.05
Cc1ccn(-c2cc(C(N)=O)nc(-c3cccc(C#C[C@]4(O)CCN(C)C4=O)c3)n2)n1 | < | 0.05
CN1CC[C@@](O)(C#Cc2cccc(-c3nc(C(N)=O)cc(-c4ccnn4C)n3)c2)C1=O | < | 0.05
CN1CC[C@@](O)(C#Cc2cccc(-c3nc(C(N)=O)cc(N(C)C)n3)c2)C1=O | = | 0.83
Cc1ccc(-c2cc(C(N)=O)nc(-c3cccc(C#C[C@]4(O)CCN(C)C4=O)c3)c2)cn1 | = | 0.05
CN1CC[C@@](O)(C#Cc2cccc(-c3ncc(N[C@@H]4CCOC4)c(C(N)=O)n3)c2)C1=O | = | 0.05
COCCNc1ccc(-c2cc(C#C[C@]3(O)CCN(C)C3=O)ccc2F)nc1C(N)=O | = | 0.1
Cc1cnc2c(-c3cccc(C#C[C@]4(O)CCN(C)C4=O)c3)nc(C(N)=O)cn12 | = | 0.38
Cc1ccnn1-c1cc(C(N)=O)nc(-c2ccc(F)c(C#C[C@]3(O)CCN(C)C3=O)c2)n1 | = | 0.37
CN1CC[C@@](O)(C#Cc2cccc(-c3nc(N[C@@H]4CCOC4)cc(C(N)=O)n3)c2)C1=O | = | 0.93
CN1CC[C@@](O)(C#Cc2cccc(-c3nc(C(N)=O)cc4c3OCC4)c2)C1=O | = | 0.14
Cc1ccc(-c2cc(C(N)=O)nc(-c3cccc(C#C[C@]4(O)CCN(C)C4=O)c3)n2)cn1 | = | 0.49
CN1CC[C@@](O)(C#Cc2cc(F)c(F)c(-c3ccc(N)c(C(N)=O)n3)c2)C1=O | < | 0.05
Cc1cc(C#C[C@]2(O)CCN(C)C2=O)cc(-c2nccc(C(N)=O)n2)c1 | = | 1.41
Cc1cc(C(N)=O)nc(-c2cc(F)cc(C#C[C@]3(O)CCN(C)C3=O)c2)c1 | = | 0.16
CN1CC[C@@](O)(C#Cc2cccc(-c3nc(C(N)=O)c(NC[C@H]4CCO4)cc3F)c2)C1=O | = | 0.33
COC[C@@H](C)Nc1ccc(-c2cc(C#C[C@]3(O)CCN(C)C3=O)ccc2F)nc1C(N)=O | = | 0.19
CC(C)C[C@H]1CCCN1c1cc(C(N)=O)nc(-c2cccc(C#C[C@]3(O)CCN(C)C3=O)c2)n1 | = | 5.57
CN1CC[C@@](O)(C#Cc2cccc(-c3cc(C(F)(F)F)cc(C(N)=O)n3)c2)C1=O | = | 0.53
CN1CC[C@@](O)(C#Cc2cccc(-c3nc(C(N)=O)cc(N4CC(F)(F)C4)n3)c2)C1=O | = | 2.35
CN1CC[C@@](O)(C#Cc2cccc(-c3nc(C(N)=O)cc(-c4ccn[nH]4)n3)c2)C1=O | = | 0.6
COCCN(C)c1cc(C(N)=O)nc(-c2cccc(C#C[C@]3(O)CCN(C)C3=O)c2)n1 | = | 1.17
CN1CC[C@@](O)(C#Cc2cccc(-c3cc(CO)cc(C(N)=O)n3)c2)C1=O | = | 0.8
CN1CC[C@@](O)(C#Cc2cccc(-c3cc(N)cc(C(N)=O)n3)c2)C1=O | = | 0.05
Cc1cn2cc(C(N)=O)nc(-c3cccc(C#C[C@]4(O)CCN(C)C4=O)c3)c2n1 | = | 0.86
CN1CC[C@@](O)(C#Cc2cccc(-c3ncc(NCC(F)(F)F)c(C(N)=O)n3)c2)C1=O | = | 0.37

* * *

Study System: nuclear factor-kappa B (NF-kB)-inducing kinase (NIK) (Homo sapiens)
Construct: made in house; host or cells: baculovirus-infected insect cells
Protocol Summary: NIK enzyme inhibition assay (Transcreener ADP fluorescence polarization, NIK ADP-FP)
Type: biochemical
// boundary case: Ki equal to 0.0005 µM maps to n; strictly smaller maps to y

Test Smiles | Group
CN1CC[C@@](O)(C#Cc2cccc(-c3nccc(C(N)=O)n3)c2F)C1=O | n
Cc1nc(-c2cccc(C#C[C@]3(O)CCN(C)C3=O)c2)nc(C(N)=O)c1N | y
CN1CC[C@@](O)(C#Cc2cccc(-c3cc(C(F)F)cc(C(N)=O)n3)c2)C1=O | y
CN1CC[C@@](O)(C#Cc2cccc(-c3nc(C(N)=O)c4cnn(C5CC5)c4n3)c2)C1=O | y
CN1CC[C@@](O)(C#Cc2cccc(-c3cc(O)cc(C(N)=O)n3)c2)C1=O | n
CN1CC[C@@](O)(C#Cc2cccc(-c3nc(C(N)=O)c(NCC(F)(F)F)cc3F)c2)C1=O | y
CN1CC[C@@](O)(C#Cc2cccc(-c3nc(C(N)=O)cc(-c4cc(F)ccc4F)n3)c2)C1=O | y
CN1CC[C@@](O)(C#Cc2cccc(-c3nc(C(N)=O)cc(N4CCCC45COC5)n3)c2)C1=O | n
CN1CC[C@@](O)(C#Cc2cccc(-c3cc(OCC(F)(F)F)cc(C(N)=O)n3)c2)C1=O | y
Cc1cc(C(N)=O)nc(-c2cccc(C#C[C@]3(O)CCN(C)C3=O)c2)n1 | y
CN1CC[C@@](O)(C#Cc2cccc(-c3nc(C(N)=O)cc(-c4cc(F)cc(F)c4)n3)c2)C1=O | y
CN1CC[C@@](O)(C#Cc2cccc(-c3nc(C(N)=O)ccc3C(F)F)c2)C1=O | n

* * *

Study System: nuclear factor-kappa B (NF-kB)-inducing kinase (NIK) (Homo sapiens, UniProt Q99558)
Construct: made in house; host or cells: baculovirus-infected insect cells
Protocol Summary: NIK enzyme inhibition assay (Transcreener ADP fluorescence polarization, NIK ADP-FP)
Format: biochemical

Test Smiles | Comparative Sign | Ki / nM
COCc1cc(-c2cccc(C#C[C@]3(O)CCN(C)C3=O)c2)nc(C(N)=O)n1 | = | 0.49
CN1CC[C@@](O)(C#Cc2cccc(-c3cc(-n4cc(F)cn4)cc(C(N)=O)n3)c2)C1=O | < | 0.05
CN1CC[C@@](O)(C#Cc2cccc(-c3cc(-c4ccnn4C)cc(C(N)=O)n3)c2)C1=O | = | 0.69
CN1CC[C@@](O)(C#Cc2cccc(-c3nc(OC4CCOCC4)c(N)c(C(N)=O)n3)c2)C1=O | = | 0.4
COCc1cc(C(N)=O)nc(-c2cccc(C#C[C@]3(O)CCN(C)C3=O)c2)c1 | = | 0.5
COc1cc(-c2cccc(C#C[C@]3(O)CCN(C)C3=O)c2)nc(C(N)=O)c1OC | = | 3.67
CN1CC[C@@](O)(C#Cc2cccc(-c3cc(N4CCCC4=O)cc(C(N)=O)n3)c2)C1=O | = | 0.53
Cc1ccc(-c2cccc(C#C[C@]3(O)CCN(C)C3=O)c2)nc1C(N)=O | = | 0.18
COC[C@H](C)Nc1ccc(-c2cc(C#C[C@]3(O)CCN(C)C3=O)ccc2F)nc1C(N)=O | = | 0.88
COc1cc(C(N)=O)nc(-c2ccc(F)c(C#C[C@]3(O)CCN(C)C3=O)c2)c1 | < | 0.05
CN1CC[C@@](O)(C#Cc2cccc(-c3nc(C(N)=O)nc4c3ccn4C)c2)C1=O | = | 1.08
CN1CC[C@@](O)(C#Cc2cccc(-c3ncc(N)c(C(N)=O)n3)c2)C1=O | = | 0.05
CN1CC[C@@](O)(C#Cc2cccc(-c3nc(C(N)=O)c4ccccc4n3)c2)C1=O | = | 0.05
CN1CC[C@@](O)(C#Cc2cccc(-c3nc(C(N)=O)c(NCc4ccon4)cc3F)c2)C1=O | = | 0.33
CN1CC[C@@](O)(C#Cc2cccc(-c3nc(C(N)=O)c(N)cc3F)c2)C1=O | = | 0.16
CN1CC[C@@](O)(C#Cc2cccc(-c3nc(C(N)=O)c(Cl)cc3F)c2)C1=O | = | 5.61

The measurements presented in this section are drawn from patent US20160185797A1.
